Assay: activity coefficient (dimensionless); of the first substance listed, at infinite dilution; xn = mol fraction of the nth substance listed
Details: 364.55 K; Liquid; Chromatography; x1 = 0
Observed property: activity coefficient

{"Molecule": "OC1CCCCC1 [cyclohexanol] + CCCCCC[n+]1ccn(C)c1.O=S(=O)([N-]S(=O)(=O)C(F)(F)F)C(F)(F)F", "Reported measurement": 1.6}
{"Molecule": "CCCCCCO [hexan-1-ol] + CCCCCC[n+]1ccn(C)c1.O=S(=O)([N-]S(=O)(=O)C(F)(F)F)C(F)(F)F", "Reported measurement": 1.97}
{"Molecule": "C=CCCCCCCCC [1-decene] + CCCCCC[n+]1ccn(C)c1.O=S(=O)([N-]S(=O)(=O)C(F)(F)F)C(F)(F)F", "Reported measurement": 11.9}
{"Molecule": "C=CCCCCCCC [1-nonene] + CCCCCC[n+]1ccn(C)c1.O=S(=O)([N-]S(=O)(=O)C(F)(F)F)C(F)(F)F", "Reported measurement": 9.54}
{"Molecule": "CCC(C)(C)O [2-methylbutan-2-ol] + CCCCCC[n+]1ccn(C)c1.O=S(=O)([N-]S(=O)(=O)C(F)(F)F)C(F)(F)F", "Reported measurement": 1.06}
{"Molecule": "CCCCCO [pentan-1-ol] + CCCCCC[n+]1ccn(C)c1.O=S(=O)([N-]S(=O)(=O)C(F)(F)F)C(F)(F)F", "Reported measurement": 1.63}
{"Molecule": "C=CCCCCCCCCCC [1-dodecene] + CCCCCC[n+]1ccn(C)c1.O=S(=O)([N-]S(=O)(=O)C(F)(F)F)C(F)(F)F", "Reported measurement": 19.3}
